target: Recombinant human FIH-1 (Homo sapiens, UniProt Q9NWT6); experiment: FIH dose-response activity assay; format: biochemical
Sequence (Q9NWT6 whole entry): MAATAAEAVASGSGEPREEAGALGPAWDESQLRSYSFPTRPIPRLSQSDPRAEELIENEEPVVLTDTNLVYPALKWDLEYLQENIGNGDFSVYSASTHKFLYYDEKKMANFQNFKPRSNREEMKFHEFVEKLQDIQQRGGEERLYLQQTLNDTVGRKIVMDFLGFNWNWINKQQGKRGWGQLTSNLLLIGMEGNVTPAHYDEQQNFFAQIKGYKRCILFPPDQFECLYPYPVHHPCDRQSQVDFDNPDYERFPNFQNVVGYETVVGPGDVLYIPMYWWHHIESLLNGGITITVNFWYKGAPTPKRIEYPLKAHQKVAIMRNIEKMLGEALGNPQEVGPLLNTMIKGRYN
# IC50 annotations
READOUT_KIND: IC50 (µM)

> print(dat)
                                   molecule  numeric.value
1  Cc1c(O)c(=O)ccn1C [Compound 7, 3-Hydroxy-1,2-dimethyl-4(1H)-pyridinone]             30
2        O=C(O)c1cc(=O)c(O)co1 [Compound 5]             50
3  Oc1cccnc1O [Compound 3, 2,3-Dihydroxypyridine]             75

###

# IC50 annotations
target: Recombinant human FIH-1 (Homo sapiens, UniProt Q9NWT6); assay: FIH dose-response activity assay; assay type: biochemical
READOUT_KIND: IC50 (µM)

> print(dat)
                                   compound  readout.kind  numeric.value
1  O=c1cc(CO)occ1O [Compound 4, 5-Hydroxy-2-hydroxymethyl-4-pyrone]          IC50            170
2  Cc1ccc(O)c(O)c1 [Compound 9, 4-Methylcatechol]          IC50             50
3  O=[N+]([O-])c1ccc(O)c(O)c1 [Compound 8, 4-Nitrocatechol]          IC50             10
4  CC(C)(C)c1ccc(O)c(O)c1 [Compound 10, 4-tert-Butylcatechol]          IC50            120
5  Cc1occc(=O)c1O [Compound 6, 3-Hydroxy-2-methyl-4-pyrone]          IC50             70
